Entries and their GI50
# Test system: SK-MEL-28 melanoma
# method.summary: NCI tumour cell line growth inhibition, 48 h
property.name: GI50

molecule="COC1/C=C/OC2(C)Oc3c(C)c(O)c4c(O)c(c(/C=N/N(c5ccccc5)c5ccccc5)c(O)c4c3C2=O)NC(=O)C(C)=C/C=C/C(C)C(O)C(C)C(O)C(C)C(OC(C)=O)C1C (stereo unspecified)" assay_target="SK-MEL-28 melanoma" property_name=GI50 result="1.07 µM"
molecule="CCOC1Oc2ccccc2C(=O)/C1=C\\Nc1ccc(C(=O)O)c(O)c1 (stereo unspecified)" assay_target="SK-MEL-28 melanoma" property_name=GI50 result="23.9 µM"
molecule=COc1ccc2[nH]cc(C3(c4c[nH]c5ccc(OC)cc45)C(=O)Nc4ccc(Cl)cc43)c2c1 assay_target="SK-MEL-28 melanoma" property_name=GI50 result="3.1 µM"
molecule=Oc1ccccc1/C=N\Nc1ccccc1 assay_target="SK-MEL-28 melanoma" property_name=GI50 result="5.33 µM"
molecule=CCc1c2c(nc3ccc(OC(=O)OCc4ccc(B5OC(C)(C)C(C)(C)O5)cc4)cc13)-c1cc3c(c(=O)n1C2)COC(=O)[C@]3(O)CC assay_target="SK-MEL-28 melanoma" property_name=GI50 result="0.262 µM"
molecule=Cc1cnc(-c2ccc(-c3ccc(NC(=O)Nc4cccc(C(F)(F)F)c4)cc3F)c3c2C(=O)NC3)[nH]1 assay_target="SK-MEL-28 melanoma" property_name=GI50 result="11.5 µM"
molecule=Cc1c(C(=O)/C=C/c2ccc(Cl)cc2)nnn1-c1ccnc2c(C(F)(F)F)cccc12 assay_target="SK-MEL-28 melanoma" property_name=GI50 result="> 100 µM"
molecule=Cl.[O-]c1cccc2cccnc12.[O-]c1cccc2cccnc12.[O-]c1cccc2cccnc12.[O-]c1cccc2cccnc12.[Ti+4] assay_target="SK-MEL-28 melanoma" property_name=GI50 result="4.33 µM"
molecule="O=C(O)CC(S)C(=O)O.[Li+].[Sb] (stereo unspecified)" assay_target="SK-MEL-28 melanoma" property_name=GI50 result="55.5 µM"
molecule=CN(CCCCCCCCNc1ccnc2ccccc12)Cc1ccc(-c2ccc(-c3ccc(C#N)cc3)s2)cc1 assay_target="SK-MEL-28 melanoma" property_name=GI50 result="1.65 µM"
molecule=O=C(C(=O)c1cccnc1)c1cccnc1 assay_target="SK-MEL-28 melanoma" property_name=GI50 result="> 100 µM"
